// values below are reported Growth Rate
System: U2OS
Assay: Incucyte cell viability with U2OS; also: unitless GR value; below 1 slowed growth and below 0 cell loss
Assay type: toxicity, cell-based
Conditions: human, 18 h, 10 µM, compound concentration 10 uM, replicate number 2

{"compound": "CN(Cc1cccc(F)c1CNc1cc(F)c(S(=O)(=O)Nc2cscn2)c(F)c1)C(C)(C)C", "Growth Rate": 0.97}
{"compound": "Cl.O=C(NCCN1CCC2(CC1)C(=O)NCN2c1cccc(F)c1)c1ccc2ccccc2c1", "Growth Rate": 0.23}
{"compound": "Cc1ccc(-n2nc(C(C)(C)C)cc2NC(=O)Nc2ccc(OCCN3CCOCC3)c3ccccc23)cc1 [DORAMAPIMOD]", "Growth Rate": 0.87}
{"compound": "Cc1cc(OC2CCS(=O)(=O)CC2)cc(C)c1-c1cccc(COc2ccc(CCC(=O)O)c(F)c2)c1", "Growth Rate": 0.99}
{"compound": "CCN(C)S(=O)(=O)Nc1cccc(-c2ccc3c(NC(=O)C4CC4)n[nH]c3c2)c1", "Growth Rate": 0.1}
{"compound": "O=C1c2c(Br)c(Br)c(Br)c(Br)c2C(=O)N1c1ncc[nH]1", "Growth Rate": 0.8}
{"compound": "CN(C)C(=O)Cn1cc(-c2nc([C@@](C)(c3ccc(-c4cnc(N)nc4)cc3)C3CC3)no2)cn1 [BI 665915]", "Growth Rate": 0.99}
{"compound": "COCCNC1CCC(Nc2cc(-c3csc(NCC4(C#N)CCOCC4)n3)c(Cl)cn2)CC1 (centres undefined)", "Growth Rate": 0.04}
{"compound": "O=C(Cc1ccccc1)Nc1nnc(N2C[C@H]3C[C@@H]2CN3c2cccnn2)s1 [A-446]", "Growth Rate": 0.8}
{"compound": "COc1cc(N2CCN(C)CC2)ccc1Nc1ncc2c(n1)N(C)c1ccccc1C(=O)N2CC(F)(F)F", "Growth Rate": 0.87}
{"compound": "Cl.NCC(O)c1ccc(O)cc1 (centres undefined) [OCTOPAMINE HYDROCHLORIDE]", "Growth Rate": 0.87}
{"compound": "CNS(=O)(=O)c1ccc(N(C)C)c(Nc2ncnc3cc(OC)c(OC)cc23)c1", "Growth Rate": 0.39}
{"compound": "CCNC(=O)c1ccc2c(c1)NC(=O)/C2=C(\\Nc1ccc(CN(C)C)cc1)c1ccccc1", "Growth Rate": 0.8}
{"compound": "C[C@]12CC[C@@H]3c4ccc(C(N)=O)cc4CC[C@H]3[C@@H]1CC=C2c1cncc(F)c1", "Growth Rate": 0.92}
{"compound": "Cn1c(C2(NC(=O)c3ccc4c(C5CCCC5)c(-c5ncc(Br)cn5)n(C)c4c3)CCC2)nc2ccc(/C=C/C(=O)[O-])cc21.[Na+] [DELEOBUVIR SODIUM]", "Growth Rate": 0.92}
{"compound": "O=c1cccc2n1C[C@@H]1CNC[C@H]2C1 [CYTISINICLINE]", "Growth Rate": 0.99}
{"compound": "COc1cc(OC)c(NC(=O)Nc2cc(C)on2)cc1Cl", "Growth Rate": 0.82}
{"compound": "Nc1ncnc2c1c(I)cn2[C@@H]1O[C@H](CO)[C@@H](O)[C@H]1O [IODOTUBERCIDIN]", "Growth Rate": -0.04}
{"compound": "O=C(Nc1ccc(-n2nc(-c3cccnc3)cc2C(F)(F)F)cn1)c1ccc(-c2ccccc2)c(F)c1 [BI 2049]", "Growth Rate": 0.93}
{"compound": "Cc1ccc(NS(=O)(=O)c2ccc3c(c2)C2C=CCC2C(c2ccc(C(=O)O)cc2)N3)cc1C (centres undefined)", "Growth Rate": 0.99}
{"compound": "COc1ccc(-n2c(C)c([N+](=O)[O-])c3ccc(O)cc32)cc1", "Growth Rate": 0.61}
{"compound": "Cc1cccc(-c2nn(C(=S)Nc3ccccc3)cc2-c2ccnc3ccccc23)n1", "Growth Rate": 0.98}
{"compound": "COc1ccc2c(O[C@@H]3C[C@H]4C(=O)N[C@]5(C(=O)O)CC5/C=C\\CCCCC[C@H](NC(=O)OC5CCCC5)C(=O)N4C3)cc(-c3csc(NC(=O)C(C)C)n3)nc2c1C (some centres undefined) [BI 1230]", "Growth Rate": 0.98}
{"compound": "Cc1cc2c(cc(C(=O)N[C@H](CO)c3ccc(S(=O)(=O)CC(=O)O)cc3)n2C)c(Cl)c1Cl", "Growth Rate": 0.79}
{"compound": "Cc1ccc(NC(=O)c2ccc3c(c2)OCCO3)cc1NC(=O)c1ccc2nc(OCCN3CCCC3)ccc2c1", "Growth Rate": -0.04}
{"compound": "O=C(Nc1ccccc1Cl)c1cnc2ccc(C3CCNCC3)cn12.O=C(O)C(=O)O", "Growth Rate": 0.61}
{"compound": "COc1ccccc1N1CCN(c2ncnc3c2cnn3-c2ccccc2)CC1", "Growth Rate": 1}
{"compound": "CC(C)(O)[C@H](F)CN1Cc2cc(NC(=O)c3cnn4cccnc34)c(N3CCOCC3)cc2C1=O", "Growth Rate": 0.95}
{"compound": "Cl.Cl.Nc1nccc(-c2c(-c3ccc(F)cc3)ncn2C2CCCCC2)n1", "Growth Rate": 0.84}
{"compound": "CC(C)c1nc2c(c3c1[C@@H](c1ccc(C(F)(F)F)cc1)OC31CCOCC1)[C@@H](O)CC(C)(C)C2.Cl", "Growth Rate": 0.78}
{"compound": "FC(F)(F)c1ccc(Nc2ncnc3cc(-c4ncccc4C(F)(F)F)ccc23)cc1 [NGD-8243]", "Growth Rate": 0.8}
{"compound": "CCc1ccccc1C(=O)Nc1n[nH]c2c(C)c(F)c(C3C(C#N)=C(C)N(C)C(C)=C3C#N)cc12 [BAY-3827]", "Growth Rate": 0.62}
{"compound": "CC1(C)CCC(CN2CCN(c3ccc(C(=O)NS(=O)(=O)c4ccc(NCC5CCOCC5)c([N+](=O)[O-])c4)c(Oc4cnc5[nH]ccc5c4)c3)CC2)=C(c2ccc(Cl)cc2)C1 [VENETOCLAX]", "Growth Rate": 0.89}
{"compound": "Cc1onc(-c2ccc(F)cc2)c1COc1ccc(C(=O)N2CCS(=O)(=O)CC2)cn1 [BASMISANIL]", "Growth Rate": 0.98}

###

Tested on: U2OS
Assay: Incucyte cell viability with U2OS; also: unitless GR value; below 1 slowed growth and below 0 cell loss
Format: toxicity, cell-based
Details: human, 18 h, 10 µM, compound concentration 10 uM, replicate number 2
Threshold rule: Growth Rate greater than or equal to 0.9 is TRUE; below that, FALSE.

{"molecule": "CCN1CCN(Cc2ccc(C(=O)Nc3ccc(C)c(Oc4ccc5c(c4)CC(=O)N5)c3)cc2C(F)(F)F)CC1.Cl.Cl", "label-class": "FALSE"}
{"molecule": "Cn1cc(NC(=O)c2ccc3nc4n(c3c2)CCCNC4=O)nc1C(=O)NC1CCCC1", "label-class": "TRUE"}
{"molecule": "Cc1nsc(Nc2cnc(C(F)(F)F)cn2)c1C(=O)Nc1ccc(O[C@H]2CCCN(CC(F)(F)F)C2)nc1", "label-class": "FALSE"}
{"molecule": "[2H]C([2H])([2H])NC(=O)c1nnc(NC(=O)C2CC2)cc1Nc1cccc(-c2ncn(C)n2)c1OC", "label-class": "FALSE"}
{"molecule": "CC(C)CNc1nc(N2CCN(CC3CCCOC3)CC2)ncc1C(=O)NCc1ccccc1 (centres undefined)", "label-class": "FALSE"}
{"molecule": "COc1ncc(-c2cc(-c3ncc(CN4C[C@@H](C)O[C@@H](C)C4)o3)c3cn[nH]c3c2)cc1NS(C)(=O)=O", "label-class": "FALSE"}
{"molecule": "CCN1/C(=C/C(C)=O)Sc2ccc(OC(C)=O)cc21", "label-class": "TRUE"}
{"molecule": "N#Cc1cccc(-c2c[nH]c3ncnc(N4CCOCC4)c23)c1", "label-class": "TRUE"}
{"molecule": "COc1cc2ncnc(Nc3ccc(F)c(Cl)c3)c2cc1OCCN(C)C[C@H](C)O", "label-class": "FALSE"}
{"molecule": "CC1(C)OC(=O)c2ccc(Nc3ncc(-c4nnco4)c(N[C@H](CO)c4ccccc4)n3)cc21", "label-class": "FALSE"}
{"molecule": "COc1ccc(OC)c(-c2ccc(NC(=O)c3ccncc3F)cc2)c1", "label-class": "FALSE"}
{"molecule": "COc1ccc(F)c(F)c1C(=O)c1cnc(NC2CCN(S(C)(=O)=O)CC2)nc1N", "label-class": "FALSE"}
{"molecule": "O=C(Nc1ccccc1C(=O)O)c1cc(S(=O)(=O)c2ccccc2)ccc1Cl", "label-class": "FALSE"}
{"molecule": "Cc1c(-c2cc(-c3ccccc3Cl)no2)cnn1C1CCNCC1.Cl", "label-class": "FALSE"}

###

Tested on: U2OS
Test: Incucyte cell viability with U2OS; also: unitless GR value; below 1 slowed growth and below 0 cell loss
Format: toxicity, cell-based
Conditions: human, 12 h, 10 µM, compound concentration 10 uM, replicate number 2
Numbered stars: 1 amine (or outer) side, 2 acyl side, 3 side chain; on linkers, the order of the positions; unused ones are H or OH. Bridge positions count the residues as written; N and C are the ends. Square brackets hold non-standard residues; d marks the D form. Peptide text beside a SMILES is read from it. I, II: the chains in the order shown. Hexamethylenediamine = C(CCCN[*:2])CCN[*:1]; Dip = N[C@H](C(=O)O)C(c1ccccc1)c1ccccc1; Chg = N[C@H](C(=O)O)C1CCCCC1; NMeA = CN[C@@H](C)C(=O)O

{"molecule": "COc1ccc(CC[C@@H](OC(=O)[C@@H]2CCCCN2C(=O)[C@H](c2cc(OC)c(OC)c(OC)c2)C2CCCCC2)c2cccc(OCCN3CCOCC3)c2)cc1OC", "target-of-assay": "U2OS", "Growth Rate": 0.8}
{"molecule": "Cl.Cl.Fc1ccc([C@@H]2CCNC[C@H]2COc2ccc3c(c2)OCO3)cc1.Fc1ccc([C@@H]2CCNC[C@H]2COc2ccc3c(c2)OCO3)cc1.O [PAROXETINE HYDROCHLORIDE]", "target-of-assay": "U2OS", "Growth Rate": 0.84}
{"molecule": "C[C@@H](Oc1cc(-n2cnc3ccc(OC4CCN(C)CC4)cc32)sc1C(N)=O)c1ccccc1Cl [GSK-579289A]", "target-of-assay": "U2OS", "Growth Rate": 0.84}
{"molecule": "Cl.NC(=O)c1ccccc1Nc1nc(-c2ccc(N3CCOCC3)cc2)cc2ncccc12", "target-of-assay": "U2OS", "Growth Rate": 0.32}
{"molecule": "N#Cc1ccc(C#CC[C@@H](C#N)NC(=O)[C@@H]2CCCCN2)cc1F", "target-of-assay": "U2OS", "Growth Rate": 0.73}
{"molecule": "CN1CCc2cc(Nc3ncc(C(F)(F)F)c(NCc4cc[nH]n4)n3)ccc2C1", "target-of-assay": "U2OS", "Growth Rate": 0.56}
{"molecule": "Cl.N/C(=N\\C(=O)c1nc(Cl)c(N)nc1N)NCc1ccccc1 [BENZAMIL HYDROCHLORIDE]", "target-of-assay": "U2OS", "Growth Rate": 0.99}
{"molecule": "CNC(=O)c1ccc(C)c(-n2c(C)cc(OCc3ccc(F)cc3F)c(Br)c2=O)c1", "target-of-assay": "U2OS", "Growth Rate": 0.75}
{"molecule": "CN[C@@H](C)C(=O)N[C@H](C(=O)N1CCC[C@H]1C(=O)N[C@H](C(=O)NCCCCCCNC(=O)[C@@H](NC(=O)[C@@H]1CCCN1C(=O)[C@@H](NC(=O)[C@H](C)NC)C1CCCCC1)C(c1ccccc1)c1ccccc1)C(c1ccccc1)c1ccccc1)C1CCCCC1 (I: H-[NMeA][Chg]P[Dip] / II: H-[NMeA][Chg]P[Dip]; linker I:C-II:C via Hexamethylenediamine)", "target-of-assay": "U2OS", "Growth Rate": -0.63}
{"molecule": "O=C(N[C@H](Cc1ccccc1)C(=O)O)c1cccc(OCc2cccnc2)c1.O=CO", "target-of-assay": "U2OS", "Growth Rate": 0.77}
{"molecule": "CN(C)C(=O)Cn1cc(-c2ccc(-c3cncc4ccccc34)cc2)cn1", "target-of-assay": "U2OS", "Growth Rate": 0.83}
{"molecule": "CCN1CCN(Cc2ccc(NC(=O)c3ccc(C)c(Oc4ccnc5[nH]ccc45)c3)cc2C(F)(F)F)CC1.Cl.Cl.Cl.O", "target-of-assay": "U2OS", "Growth Rate": 0.38}
{"molecule": "O=C1NCCSc2c1sc1ccc(O)cc21", "target-of-assay": "U2OS", "Growth Rate": 0.36}
{"molecule": "CCc1nc(-c2cccc(C)c2)c(-c2ccnc(NC(=O)c3ccccc3)c2)s1", "target-of-assay": "U2OS", "Growth Rate": 0.79}
{"molecule": "CC(C1CC2CCC1C2)n1c(S)nnc1-c1ccco1 (stereo not given)", "target-of-assay": "U2OS", "Growth Rate": 0.67}
